Assay: gradient 5% acetonitrile 3 min, to 50% in 2 min, to 85% in 15 min, held 3 min, 100 µL/min
Settings: column: Zorbax Extend-C18 2.1 x 50 mm; eluents: water / acetonitrile, 0.1% formic acid
Property measured: RP-LC retention time (s)

1: O=C1CCCN1c1ccc(Cn2cc(-c3nc(-c4cccc(F)c4)no3)ccc2=O)cc1
2: Cc1nc(-c2cc(S(=O)(=O)Nc3ccc(Br)cc3F)c(C)s2)cs1
Just curious, which one has the larger RP-LC retention time reading, 1 or 2 ? Your answer should be the label attached to the chosen record. 2

I: O=C(Nc1ccccc1)c1c(O)c2cccnc2n(-c2cccc(F)c2)c1=O
II: O=C(NCc1ccccn1)c1ccc2ncnc(N3CCCCC3)c2c1
III: Cc1ccc(-c2noc(Cn3ncn4nc(-c5ccc(F)cc5)cc4c3=O)n2)cc1
# rank by RP-LC retention time, ascending (min first) Order the labels as requested and list them. II, III, I
(II: 551 s, III: 817 s, I: 1210 s)

A: CCOc1ccc(CNC(=O)C2CCCN(c3nccnc3Oc3ccc(C)cc3)C2)cc1OCC (centres undefined)
B: O=C(C1CCCCC1)N1CCC(c2noc(CO)n2)C1 (centres undefined)
Out of A and B , name the one with the higher RP-LC retention time. Reply briefly: the label of your chosen item. A

###

Test: gradient 5% acetonitrile 3 min, to 50% in 2 min, to 85% in 15 min, held 3 min, 100 µL/min
Conditions: column: Zorbax Extend-C18 2.1 x 50 mm; eluents: water / acetonitrile, 0.1% formic acid
Property measured: RP-LC retention time (s)

Consider the reported RP-LC retention time for these compounds:
{"columns": ["Compound", "RP-LC retention time, s"],
 "data": [
  ["COc1nn(C)cc1C(=O)Nc1nnc(-c2sc(C)nc2C)o1", 598],
  ["O=S(=O)(Cc1ccccc1F)N1CCC(c2noc(COCC3CC3)n2)CC1", 962],
  ["O=S(=O)(Nc1ccc(F)cc1F)c1ccc2c(c1)-c1oncc1CO2", 873]
]}

a: CC(C)c1ccc(NC(=O)C2CCc3nc(N4CCOCC4)ncc3C2)cc1 (centres undefined)
b: CCOc1cccc(C2CC(c3ccc(OC)c(OC)c3)=NC3(CCN(C(C)C)CC3)N2)c1O (centres undefined)
Hello, I am sorting some records. Could you say if a or b has the smaller RP-LC retention time value? Bench note: the answer is the label of the chosen record. b
(b: 604 s, a: 888 s)

A: O=S(=O)(c1ccccc1)N1CCCC(c2nc(CCOCC3CC3)no2)C1 (centres undefined)
B: c1ccc2c(CC3=NCCN3)cccc2c1
Compare the recorded RP-LC retention time of A and B ; state which is larger. Please reply using the label of the selected record. A

1: CCOC(=O)c1ccc(NC(=O)C2CCCN(S(=O)(=O)c3cc(OC)ccc3OC)C2)cc1 (centres undefined)
2: CN1C(=O)C2(c3ccccc31)C(C(=O)Nc1c(F)c(F)c(F)c(F)c1F)CC1CCCN12 (centres undefined)
Decide: 1 or 2 , by lowest recorded RP-LC retention time. Respond with the label that goes with your answer. 2
(2: 653 s, 1: 975 s)

###

Assay: gradient 5% acetonitrile 3 min, to 50% in 2 min, to 85% in 15 min, held 3 min, 100 µL/min
Details: column: Zorbax Extend-C18 2.1 x 50 mm; eluents: water / acetonitrile, 0.1% formic acid
Property measured: RP-LC retention time (s)

{"columns": ["Molecule", "RP-LC retention time / s"],
 "data": [
  ["CC(C)CCNC(=O)C1CCN(S(=O)(=O)c2ccc3c(c2)sc(=O)n3C)CC1", 832],
  ["O=C(Nc1cccc(F)c1)[C@@H]1OCCN(C2CC2)[C@H]1c1ccccc1", 675],
  ["Cn1nccc1C(=O)N1CCN(C(=O)c2cc(-c3ccncc3)n[nH]2)CC1", 523]
]}

1: COc1ccccc1N1C(=O)c2cccc3cccc(c23)C1=O
2: Cc1nc2cc(-c3noc(COc4ccccc4)n3)ccc2n(C2CCCC2)c1=O
3: CCCCN1CCN(C(=O)c2cc(-c3ccncc3)cn2Cc2ccc(C)cc2)CC1
Sort ascending by RP-LC retention time. Arrange the labels as the request states and list them. 3, 1, 2
(3: 582 s, 1: 832 s, 2: 1200 s)
